Recorded values, source paper PMC4775916.

Field: kcat VIM-38. Provide a value for each of the compounds that follow.
tested system: VIM-38 (Pseudomonas aeruginosa, UniProt A0A0F7KYQ8, A128K/A265V/E202A/H201L/K257T/S205R)
Construct: The N- and C- terminal residues of the mature enzymes are labelled 26; His6 with HRV3C cleavage site (pET-28a) (N, cleaved yes); made in house; host or cells: E. coli BL21(DE3)
protocol text: Steady-state kinetics of β-lactam substrate hydrolysis
Format: biochemical
cond: 50 mM HEPES pH 7.2; apparent for ampicillin and ceftazidime
In your response, put the unit directly after the numeric value.

Exam item: Find kcat VIM-38 (VIM-38 (Pseudomonas aeruginosa, UniProt A0A0F7KYQ8, A128K/A265V/E202A/H201L/K257T/S205R)) for the entry CC(=O)OCC1=C(C(=O)O)N2C(=O)[C@@H](NC(=O)Cc3cccs3)[C@H]2SC1 [Cephalothin]
Marked response: 120 s⁻¹

Exam item: Query the reported kcat VIM-38 for VIM-38 (Pseudomonas aeruginosa, UniProt A0A0F7KYQ8, A128K/A265V/E202A/H201L/K257T/S205R); item: CO[C@@]1(NC(=O)Cc2cccs2)C(=O)N2C(C(=O)O)=C(COC(N)=O)CS[C@@H]21 [Cefoxitin]
Marked response: 340 s⁻¹

Exam item: Query the reported kcat VIM-38 for VIM-38 (Pseudomonas aeruginosa, UniProt A0A0F7KYQ8, A128K/A265V/E202A/H201L/K257T/S205R); item: CC(C)(O/N=C(\C(=O)N[C@@H]1C(=O)N2C(C(=O)[O-])=C(C[n+]3ccccc3)CS[C@H]12)c1csc(N)n1)C(=O)O [Ceftazidime]
Marked response: 4 s⁻¹
